molecular target: Ubiquitin carboxyl-terminal hydrolase 30 (Homo sapiens) (UniProt Q70CQ3); assay: inhibitors of human USP30 deubiquitinase (AID 1645860); settings: purified USP30, Ub-rhodamine cleavage fluorescence; at 25 µM
Sequence (Q70CQ3 whole entry, looked up): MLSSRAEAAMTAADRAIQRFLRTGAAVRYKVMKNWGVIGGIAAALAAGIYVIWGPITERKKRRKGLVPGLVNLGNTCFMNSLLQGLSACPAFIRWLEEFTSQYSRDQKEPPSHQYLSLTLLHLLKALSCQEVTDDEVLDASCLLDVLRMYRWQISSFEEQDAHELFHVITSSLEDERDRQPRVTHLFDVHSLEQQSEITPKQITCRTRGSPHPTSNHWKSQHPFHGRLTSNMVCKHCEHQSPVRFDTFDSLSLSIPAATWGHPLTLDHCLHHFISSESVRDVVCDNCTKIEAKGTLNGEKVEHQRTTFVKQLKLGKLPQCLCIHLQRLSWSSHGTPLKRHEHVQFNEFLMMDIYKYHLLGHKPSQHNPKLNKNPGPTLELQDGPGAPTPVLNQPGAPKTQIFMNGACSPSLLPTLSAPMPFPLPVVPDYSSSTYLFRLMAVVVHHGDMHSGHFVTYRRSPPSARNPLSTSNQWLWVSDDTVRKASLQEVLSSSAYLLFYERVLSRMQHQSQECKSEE
Hit rate of the full screen: of about 47,000 compounds, about 2,500 (5.3%) were called active. Rule as the data show it: active = inhibition above about 30%; inactive = the rest. The sample holds actives, similar compounds and a random draw of the others, so the mix is not that of the screen.
Outcomes: active, inactive

INSERT INTO assay_data (compound, group) VALUES
  ('COC(=O)c1ccc(NC(=O)CSc2nnc(C(C)Oc3ccccc3)n2C)cc1 (stereo unspecified)', 'inactive'),
  ('Cc1cc(C)nc(N(C(=O)C2CC2)c2ccc(OC(F)(F)F)cc2)n1', 'inactive'),
  ('CCc1nc(-c2ccc(-n3cc(C(=O)NCc4nc5ccc(C)cc5[nH]4)c(C)n3)cc2)no1', 'inactive'),
  ('COCCCNC(=O)[C@H](Cc1ccccc1)NC(=O)N1CCn2c1nc1ccccc12', 'inactive'),
  ('CC(=O)N1CCCc2ccc(NC(=O)c3cccc([N+](=O)[O-])c3)cc21', 'inactive'),
  ('CC(C)c1noc(-c2ccc(-n3cnc(C(=O)NC4CC4)c3)nc2)n1', 'inactive'),
  ('COc1ccc(CN[C@H]2[C@H](O)[C@H](O)C[C@@H]2c2ccccc2)cn1', 'inactive'),
  ('COc1cccc(OCC(=O)N2CC(=O)Nc3ccccc32)c1', 'inactive'),
  ('CC(C)CN1[C@H]2CCN(C(=O)c3ccccc3)CC[C@@H]2Oc2ccccc2S1(=O)=O', 'inactive'),
  ('COc1ccc(C2=NC3(CCN(Cc4cccc(F)c4)CC3)NC2=O)cc1', 'inactive'),
  ('Cc1nnn(C23CC4CC(CC(C(=O)NC5CCCC5)(C4)C2)C3)n1', 'inactive'),
  ('O=C(C1CCCCC1)N1CCC(c2nc3c(nnn3Cc3cccc(F)c3)c(=O)[nH]2)CC1', 'inactive'),
  ('CSCC[C@H](NC(=O)N1CCn2c1nc1ccccc12)C(=O)NCc1ccc2c(c1)OCO2', 'active'),
  ('O=C(NCC1CC1)c1nc(-c2ccc3[nH]ccc3c2)no1', 'inactive'),
  ('CN1CCN(S(=O)(=O)c2cccc(C(=O)Nc3cccc(S(N)(=O)=O)c3)c2)CC1', 'inactive'),
  ('O=C(NCCC(=O)N1CCC2(CC1)NCCc1[nH]cnc12)c1ccc(-c2ccccc2)cc1', 'inactive'),
  ('COc1ccc(NC(=O)Cc2noc(-c3cccc(OC)c3)n2)cc1', 'inactive'),
  ('O=C1CNC(=O)N1CC(O)Cn1c2ccc(Br)cc2c2cc(Br)ccc21 (stereo unspecified)', 'inactive'),
  ('CCOC(=O)N1CCC(NC(=O)CCc2ccccc2)CC1', 'inactive'),
  ('COc1cccc(-c2nnc(-c3ccc(-n4ccnc4)nc3)o2)c1', 'inactive'),
  ('Cc1cccc(NC(=O)c2ccc(N3CCC(C)CC3)c([N+](=O)[O-])c2)c1C', 'inactive');

====

target: Ubiquitin carboxyl-terminal hydrolase 30 (Homo sapiens) (UniProt Q70CQ3); test: inhibitors of human USP30 deubiquitinase (AID 1645860); details: purified USP30, Ub-rhodamine cleavage fluorescence; at 25 µM
In all, about 47,000 compounds went through this assay and about 2,500 (5.3%) were called active. Rule as the data show it: active = inhibition above about 30%; inactive = the rest. For the sample, actives were picked, then their nearest neighbours and some compounds at random.
Outcomes: Y (active), N (inactive)

INSERT INTO assay_data (molecule, group) VALUES
  ('CN1C(=O)c2ccccc2C(C(=O)N2CCc3ccccc3C2)C1c1cccs1 (stereo unspecified)', 'N'),
  ('CC(=O)Nc1ccc(S(=O)(=O)N2CCC(CC(=O)NC(C)c3ccccc3)CC2)cc1 (stereo unspecified)', 'Y'),
  ('COc1ccccc1OCC(=O)Nc1cc(C(F)(F)F)ccc1N1CCCCC1', 'N'),
  ('O=C(Nc1cc(C(F)(F)F)ccc1-n1cnc2ccccc21)c1ccc(S(=O)(=O)N2CCCCC2)cc1', 'Y'),
  ('O=C(Nc1ccc2cn[nH]c2c1)c1cnn(-c2ccccc2)n1', 'N'),
  ('O=C(Nc1ccccc1F)C1CCCN(c2nnc3ccccn23)C1 (stereo unspecified)', 'N'),
  ('Cc1nc(-c2cnccn2)n(CC(=O)Nc2ccc(F)cc2)c(=O)c1C', 'N'),
  ('Cc1ccc(CNC(=O)c2ccc(-c3cncnc3)nc2)cc1C', 'N'),
  ('CNC(=O)c1sc2nccnc2c1C1CCN(C(=O)c2cccc(F)c2)CC1', 'N'),
  ('COC(=O)c1ccc(C2c3[nH]c4ccccc4c3C[C@H]3C(=O)N(CC4CCCO4)CC(=O)N23)cc1 (stereo partly specified)', 'N'),
  ('CCC(=O)N1CCc2cc(S(=O)(=O)NC(Cc3ccccc3)C(=O)Nc3ccccc3OC)ccc21 (stereo unspecified)', 'N'),
  ('O=C(O)c1ccc(S(=O)(=O)N2CCC(Cc3ccccc3)CC2)cc1', 'N'),
  ('CN1CCc2c(sc3nc(SCCc4ccccc4)n(-c4ccccc4)c(=O)c23)C1', 'N'),
  ('COc1ccc(C2=Nc3ncnn3C2=NCc2ccc(F)cc2)cc1OC', 'N'),
  ('Cc1ccc(F)c2c(=O)c3c([nH]c12)CCN(CC(=O)Nc1cccc(C#N)c1)C3', 'N'),
  ('CCC(Oc1ccccc1)C(=O)NCc1ccc2c(c1)OCO2 (stereo unspecified)', 'N'),
  ('O=C(CSc1nccn1C1CCCCC1)Nc1ccccc1F', 'N'),
  ('Cc1ccc2c(c1)C(c1ccccc1)N(C(=O)c1ccc(S(=O)(=O)N3CCOCC3)cc1)CC(=O)N2 (stereo unspecified)', 'Y'),
  ('COc1ccc(CN=C2NS(=O)(=O)C(c3ccc(F)cc3)=C2C)cc1OC', 'Y'),
  ('COc1ccc(SCc2nc(N)nc(Nc3ccccc3)n2)cc1', 'N'),
  ('CC(C(=O)N1c2ccccc2NC(=O)C1(C)C)N1CCCC1c1ccc2c(c1)OCCO2 (stereo unspecified)', 'N');

====

biological target: Ubiquitin carboxyl-terminal hydrolase 30 (Homo sapiens) (UniProt Q70CQ3); assay: inhibitors of human USP30 deubiquitinase (AID 1645860); settings: purified USP30, Ub-rhodamine cleavage fluorescence; at 25 µM
Out of some 47,000 compounds screened, about 2,500 (5.3%) were called active. Rule as the data show it: active = inhibition above about 30%; inactive = the rest. Many of the other results were omitted from the sample, so actives are more common in it than they were.
Outcomes: active, inactive

INSERT INTO measurements (compound, group) VALUES
  ('Cc1ccc(-c2noc(-c3cccc(OCC(=O)N(C)C)c3)n2)cc1', 'active'),
  ('C=C1CCC2[C@](C)(CCC[C@]2(C)C(=O)OC)[C@H]1CCc1ccoc1C[N+](C)(C)Cc1ccccc1 (stereo not given in full)', 'active'),
  ('COc1cc(NC(=O)C2CCCCC2)c(OC)cc1NC(=O)CCC(=O)N1CCCCC1', 'inactive'),
  ('COc1ccc(-c2noc(-c3cccc(OCC(=O)NC(C)C)c3)n2)cc1', 'inactive'),
  ('COc1cccc(NC(=O)c2nnn(Cc3nc(-c4cccc(C)c4)oc3C)c2N)c1', 'inactive');

====

biological target: Ubiquitin carboxyl-terminal hydrolase 30 (Homo sapiens) (UniProt Q70CQ3); test: inhibitors of human USP30 deubiquitinase (AID 1645860); conditions: purified USP30, Ub-rhodamine cleavage fluorescence; at 25 µM; hits give high values
Out of some 47,000 compounds screened, about 2,500 (5.3%) were called active. Many of the other results were omitted from the sample, so actives are more common in it than they were.
experimental-readout: inhibition (%)

INSERT INTO results (compound, measured_value) VALUES
  ('COCCN1C(=O)CCc2cc(NS(=O)(=O)c3cc(C)cc(C)c3)ccc21', -16.1),
  ('COc1ccc(CNC(=O)c2cccc3cccnc23)cc1', -9.33),
  ('O=C(COc1ccccc1Cl)NCC(c1ccco1)N1CCOCC1 (stereo unspecified)', -52.2),
  ('O=C(COc1ccc2oc3c(c2c1)CCCC3)Nc1ccccn1', 48.3),
  ('CCCOc1ccc(CNC(=O)C2CCCN(c3nnc(N4CCCC4=O)s3)C2)cc1 (stereo unspecified)', 5.69),
  ('COc1ccc(CNC(=O)c2[nH]nc3c2CCc2ccccc2-3)cc1', 49.8),
  ('Cc1ccc(NC(=O)Cn2c(N3CCCC3)nc(C)cc2=O)cc1', 18.2),
  ('CC(NC(=O)c1nc2n(n1)-c1ccccc1S(=O)(=O)N2)c1cc2ccccc2o1 (stereo unspecified)', 0.0682),
  ('C=C1CC[C@@H]2[C@@]3(C)CCC(=O)C(C)(C)[C@@H]3CC[C@@]2(C)[C@]12Cc1c(c(C)c(C)oc1=O)O2', 30.3),
  ('COc1ccc(C2c3c(oc4ccccc4c3=O)C(=O)N2c2cc(C)on2)cc1 (stereo unspecified)', 23.7),
  ('COCc1ccc(C(=O)N2CCC3(CC2)CNC(=O)c2ccccc2O3)cc1', 14.1),
  ('Cc1ccc(S(=O)(=O)NC2=NC(c3ccccc3)c3cc(Cl)ccc3N2)cc1 (stereo unspecified)', 43.7),
  ('CC(CCc1ccccc1)NC(=O)c1cc2cc(Oc3ccccc3)ccc2[nH]1 (stereo unspecified)', 8.29),
  ('COc1ccc(C(CNC(=O)c2oc3ccccc3c2C)N2CCOCC2)cc1 (stereo unspecified)', 0.732),
  ('CC(CCc1ccccc1)NC(=O)/C=C/c1cccc([N+](=O)[O-])c1 (stereo unspecified)', 34.1),
  ('COc1ccc(CNC(=O)c2ccccc2-c2ncc(-c3ccccc3)o2)cc1', -5.92),
  ('Cc1ccc(S(=O)(=O)NCc2c(-c3ccccc3)c3cc(C)ccc3[nH]c2=O)cc1', -9.29),
  ('COc1ccc(S(=O)(=O)N(C(=O)c2ccccc2)c2ccc3oc4c(c3c2)CCCC4)cc1', -10.1),
  ('Cc1ccc(N(C)C(=O)C2CCC(=O)N2S(=O)(=O)c2ccccc2)cc1 (stereo unspecified)', 20.6),
  ('CC(C)(C)C(=O)N1CCC2(COCc3cnc(NCc4ccco4)nc32)C1 (stereo unspecified)', 2.12),
  ('Cc1ccc(NC(=O)C(OC(=O)c2ccc(S(=O)(=O)N3CCCC3)cc2)c2ccccc2)cc1 (stereo unspecified)', 0.818);
